- target_under_test: Casein kinase II subunit alpha (Zea mays)
- procedure_summary: Inhibition of corn CK2
measured_parameter: Ki (nM)

If you can, please state the reported Ki value of `CCN(CC)C1CN(C(=O)c2cccc(Nc3nc4nc5c(cnn35)CCCCC(=O)Nc3cccc(c3)N4)c2)C1` .
3.4

P: O=C1CCCCc2cnn3c(Nc4cccc(C(=O)N5CCNCC5)c4)nc(nc23)Nc2cccc(c2)N1
Q: CCN(CC)C1CCN(C(=O)c2cccc(Nc3nc4nc5c(cnn35)CCCCC(=O)Nc3cccc(c3)N4)c2)C1 (centres undefined)
R: CN(C)CCN(C)C(=O)c1cccc(Nc2nc3nc4c(cnn24)CCCCC(=O)Nc2cccc(c2)N3)c1
Falling order of Ki, please. Provide the labels, sequenced as the question asks.
R, Q, P

====

- target_under_test: Casein kinase II subunit alpha (Zea mays, UniProt P28523)
- Sequence (P28523 whole entry): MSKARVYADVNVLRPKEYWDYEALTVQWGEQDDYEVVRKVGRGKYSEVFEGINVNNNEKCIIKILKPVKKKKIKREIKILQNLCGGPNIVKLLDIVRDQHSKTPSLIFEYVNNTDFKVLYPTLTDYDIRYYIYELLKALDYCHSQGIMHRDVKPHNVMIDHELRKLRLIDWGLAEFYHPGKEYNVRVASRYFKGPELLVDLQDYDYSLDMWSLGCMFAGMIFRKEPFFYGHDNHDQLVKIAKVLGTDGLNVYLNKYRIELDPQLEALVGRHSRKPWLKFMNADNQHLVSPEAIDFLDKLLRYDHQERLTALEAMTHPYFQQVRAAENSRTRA
- procedure_summary: Inhibition of corn CK2
pKi: −log10 of the molar value.
measured_parameter: pKi

Field request: pKi | item: `CN1CC(NC(=O)c2cccc(Nc3nc4nc5c(cnn35)CCCCC(=O)Nc3cccc(c3)N4)c2)C1`
8.13

Name the reported pKi value associated with the compound `O=C1CCCCc2cnn3c(Nc4cccc(C(=O)N5CC(O)C5)c4)nc(nc23)Nc2cccc(c2)N1`
8.44

Consider the compound shown here: `CN1CCN(C(=O)c2cccc(Nc3nc4nc5c(cnn35)CCCCC(=O)Nc3cccc(c3)N4)c2)CC1` What is its recorded pKi?
8.89

Form field: reported pKi of `CN(C)CCNC(=O)c1cccc(Nc2nc3nc4c(cnn24)CCCCC(=O)Nc2cccc(c2)N3)c1`
8.28

Recorded pKi for CN1CCC(N(C)C(=O)c2cccc(Nc3nc4nc5c(cnn35)CCCCC(=O)Nc3cccc(c3)N4)c2)C1 (stereo not drawn) , please?
8.70

Sample `CN1CCC(N(C)C(=O)c2cccc(Nc3nc4nc5c(cnn35)CCCCC(=O)Nc3cccc(c3)N4)c2)CC1` — what was its pKi?
8.85

a: CN(C)C1CCN(C(=O)c2cccc(Nc3nc4nc5c(cnn35)CCCCC(=O)Nc3cccc(c3)N4)c2)C1 (stereo not drawn)
b: CCN(CC)CCN(C)C(=O)c1cccc(Nc2nc3nc4c(cnn24)CCCCC(=O)Nc2cccc(c2)N3)c1
Please tell me which of the two, a or b , has the higher reported pKi value. Record your answer as the label of the chosen record.
a
